# assay.details: Storage stability of colored resist solution (precipitation after one month at room temperature)
# Format: physicochemical
# Design: key: A: No precipitation was observed; B: Slight precipitation was observed; C: Precipitation was observed
# applied.conditions: negative-working colored resist solution, visual precipitation
measured.metric: Storage stability

[[record]]
compound = "CC1CC(C(C)(C)C)C(OC(=O)C2=C(c3ccccc3)C3=Cc4c(-c5ccccc5)c(C(=O)OC5C(C(C)(C)C)CC(C)CC5C(C)(C)C)c(NC(=O)c5cc(C(F)(F)F)cc(C(F)(F)F)c5)[n]4[Zn-]([OH])[N+]3=C2NC(=O)c2cc(C(F)(F)F)cc(C(F)(F)F)c2)C(C(C)(C)C)C1 (stereo not drawn)"
test_result = "A"

[[record]]
compound = "Cc1c(C(=O)OC2C(C(C)(C)C)CC(C)CC2C(C)(C)C)c(NC(=O)c2cccc(C(F)(F)F)c2)[n]2c1C=C1C(c3ccccc3)=C(C#N)C(NC(=O)C(C)Sc3cc(C(=O)O)cc(C(=O)O)c3)=[N+]1[Zn-]2[OH] (stereo not drawn)"
test_result = "A"

[[record]]
compound = "CC1CC(C(C)(C)C)C(OC(=O)c2c(-c3ccccc3)c3[n](c2NC(=O)c2cccc(F)c2C(=O)O)[Zn-]([OH])[N+]2=C(NC(=O)C(C)Sc4cc(C(=O)O)cc(C(=O)O)c4)C(C#N)=C(c4ccccc4)C2=C3)C(C(C)(C)C)C1 (stereo not drawn)"
test_result = "B"

[[record]]
compound = "CC1CC(C(C)(C)C)C(OC(=O)c2c(-c3ccccc3)c3[n](c2NC(=O)c2cc(C(F)(F)F)cc(C(F)(F)F)c2)[Zn-]([OH])[N+]2=C(NC(=O)C(C)Sc4cc(C(=O)O)cc(C(=O)O)c4)C(C#N)=C(c4ccccc4)C2=C3)C(C(C)(C)C)C1 (stereo not drawn)"
test_result = "A"

[[record]]
compound = "CC1CC(C(C)(C)C)C(OC(=O)c2c(-c3ccccc3)c3[n](c2NC(=O)c2ccc(F)c(F)c2)[Zn-]([OH])[N+]2=C(NC(=O)C(C)Sc4cc(C(=O)O)cc(C(=O)O)c4)C(C#N)=C(c4ccccc4)C2=C3)C(C(C)(C)C)C1 (stereo not drawn)"
test_result = "A"


Storage stability reported for this compound CC1CC(C(C)(C)C)C(OC(=O)c2c(-c3ccccc3)c3[n](c2NC(=O)c2cccc(C(F)(F)F)c2)[Zn-]([OH])[N+]2=C(NC(=O)C(C)SCCCS(=O)(=O)[O-])C(C#N)=C(c4ccccc4)C2=C3)C(C(C)(C)C)C1.[Na+] (stereo not drawn) : A

----------
# assay.details: Storage stability of colored resist solution (precipitation after one month at room temperature)
# Format: physicochemical
# Parameters: key: A: No precipitation was observed; B: Slight precipitation was observed; C: Precipitation was observed
# applied.conditions: negative-working colored resist solution, visual precipitation
measured.metric: Storage stability

[[record]]
molecule = "CC1=C(C(=O)OC2C(C(C)(C)C)CC(C)CC2C(C)(C)C)C(NC(=O)c2ccc(C(F)(F)F)cc2)=[N+]2C1=Cc1c(C)c(C(=O)OC3C(C(C)(C)C)CC(C)CC3C(C)(C)C)c(NC(=O)c3ccc(C(F)(F)F)cc3)[n]1[Zn-]2[OH] (centres unmarked)"
test_result = "A"

[[record]]
molecule = "CC1CC(C(C)(C)C)C(OC(=O)c2c(-c3ccccc3)c(C=C3N=C(NC(=O)C(C)SCCCS(=O)(=O)[O-])C(C#N)=C3c3ccccc3)[n]([Zn][OH])c2NC(=O)c2cc(F)cc(F)c2)C(C(C)(C)C)C1.[Na+] (centres unmarked)"
test_result = "A"

